Reference for the values: patent US6399561B1

Reported Initial changes per minute in A464 nm of methyl orange using rMtL is given for each of the following compounds.
# Tested on: Recombinant Myceliophthora thermophila laccase (rMtL)
# ASSAY INFO: Bleaching of methyl orange using rMtL and NOH-type enhancing agents (initial bleaching rate)
# Type: biochemical
# CONDITIONS USED: pH 6; rMtL solution diluted 1:300; 0.2 mM mediator; 30° C.; large negative numbers = best performance
Give the quantity in per minute, number only.

CC(=O)N(O)c1ccccc1 [N-hydroxyacetanilide, N-Hydroxyacetanilide]: −0.630

Exam item: Look up and report Initial changes per minute in A464 nm of methyl orange using rMtL, with Recombinant Myceliophthora thermophila laccase (rMtL) as system, for O=c1[nH]c(=O)[nH]c(=O)[nH]1
Marked response: −0.002

Exam item: Quote Initial changes per minute in A464 nm of methyl orange using rMtL with test system Recombinant Myceliophthora thermophila laccase (rMtL) for ON=C(c1ccccn1)c1ccccn1
Marked response: −0.001
